- Tested on: C. albicans vaginal isolates
- assay_remarks: Susceptibility testing of VVC clinical isolates at pH 7 and 4 (CLSI M27-A3)
- Type: cell-based, Candida albicans
- test_settings: Candida albicans, 48 h, pH 4, fluconazole-resistant isolate 9; pH 4; 48 h; read-out: MIC
Starred links: 1 amine or outer side, 2 acyl side, 3 side chain; linkers in the order of their positions; H or OH if unused. Positions of bridges follow the written chain, without caps; N, C: chain ends. Non-standard residues stand in square brackets, D forms with d. Residues, ends and D or L forms follow the SMILES beside them. *: point of attachment. Orn(4R-OH,5R-OCH2CH2NMe3+) = C[N+](C)(C)CCO[C@@H](N[*:3])[C@H](O)C[C@H](N[*:1])C(=O)[*:2]; pTerphenylCO(4''-OnC5H11) = CCCCCOc1ccc(-c2ccc(-c3ccc(C(=O)*)cc3)cc2)cc1; hTyr(3S-OH,4S-OH) = N[C@H](C(=O)O)[C@H](O)[C@@H](O)c1ccc(O)cc1; Pro(3S-OH,4S-Me) = C[C@H]1CN[C@H](C(=O)O)[C@H]1O; Hyp = O=C(O)[C@@H]1C[C@@H](O)CN1
I'd appreciate it if you could supply MIC values for the items below.
One number for each entry, in µg/mL.

- molecule: "CC[C@H](C)C[C@H](C)CCCCCCCCC(=O)N[C@H]1C[C@@H](O)[C@@H](NCCN)NC(=O)[C@@H]2[C@@H](O)CCN2C(=O)[C@H]([C@H](O)CCN)NC(=O)[C@H]([C@H](O)[C@@H](O)c2ccc(O)cc2)NC(=O)[C@@H]2C[C@@H](O)CN2C(=O)[C@H]([C@@H](C)O)NC1=O"
  target_desc: "C. albicans vaginal isolates"
  MIC (µg/mL): 1

Lab note: next molecule to report on.
Quick one: MIC for CCCCCOc1ccc(-c2ccc(-c3ccc(C(=O)N[C@H]4C[C@@H](O)[C@@H](OCC[N+](C)(C)C)NC(=O)[C@@H]5[C@@H](O)[C@@H](C)CN5C(=O)[C@H]([C@@H](C)O)NC(=O)[C@H]([C@H](O)[C@@H](O)c5ccc(O)cc5)NC(=O)[C@@H]5C[C@@H](O)CN5C(=O)[C@H]([C@@H](C)O)NC4=O)cc3)cc2)cc1 [Compound 1] ({pTerphenylCO(4''-OnC5H11)}-[Orn(4R-OH,5R-OCH2CH2NMe3+)]T[Hyp][hTyr(3S-OH,4S-OH)]T[Pro(3S-OH,4S-Me)]; lactam 1-C) ?
1

====

- Tested on: C. albicans vaginal isolates
- assay_remarks: Susceptibility testing of VVC clinical isolates at pH 7 and 4 (CLSI M27-A3)
- Format: cell-based, Candida albicans
- test_settings: Candida albicans, 48 h, pH 4, fluconazole-resistant isolate 4; pH 4; 48 h; read-out: MIC
Starred links: 1 amine or outer side, 2 acyl side, 3 side chain; linkers in the order of their positions; H or OH if unused. Positions of bridges follow the written chain, without caps; N, C: chain ends. Non-standard residues stand in square brackets, D forms with d. Residues, ends and D or L forms follow the SMILES beside them. *: point of attachment. Orn(4R-OH,5R-OCH2CH2NMe3+) = C[N+](C)(C)CCO[C@@H](N[*:3])[C@H](O)C[C@H](N[*:1])C(=O)[*:2]; pTerphenylCO(4''-OnC5H11) = CCCCCOc1ccc(-c2ccc(-c3ccc(C(=O)*)cc3)cc2)cc1; hTyr(3S-OH,4S-OH) = N[C@H](C(=O)O)[C@H](O)[C@@H](O)c1ccc(O)cc1; Pro(3S-OH,4S-Me) = C[C@H]1CN[C@H](C(=O)O)[C@H]1O; Hyp = O=C(O)[C@@H]1C[C@@H](O)CN1
quantity_kind: MIC

The following molecules have reported results that may help.
- molecule: "CCCCCOc1ccc(-c2ccc(-c3ccc(C(=O)N[C@H]4C[C@@H](O)[C@@H](OCC[N+](C)(C)C)NC(=O)[C@@H]5[C@@H](O)[C@@H](C)CN5C(=O)[C@H]([C@@H](C)O)NC(=O)[C@H]([C@H](O)[C@@H](O)c5ccc(O)cc5)NC(=O)[C@@H]5C[C@@H](O)CN5C(=O)[C@H]([C@@H](C)O)NC4=O)cc3)cc2)cc1 [Compound 1] ({pTerphenylCO(4''-OnC5H11)}-[Orn(4R-OH,5R-OCH2CH2NMe3+)]T[Hyp][hTyr(3S-OH,4S-OH)]T[Pro(3S-OH,4S-Me)]; lactam 1-C)"
  MIC: "0.25 µg/mL"
- molecule: "CCC(C)n1ncn(-c2ccc(N3CCN(c4ccc(OCC5COC(Cn6cncn6)(c6ccc(Cl)cc6Cl)O5)cc4)CC3)cc2)c1=O (stereo not shown) [ITR, itraconazole]"
  MIC: "0.125 µg/mL"

For each listed entry, give its MIC.
1. CC[C@H](C)C[C@H](C)CCCCCCCCC(=O)N[C@H]1C[C@@H](O)[C@@H](NCCN)NC(=O)[C@@H]2[C@@H](O)CCN2C(=O)[C@H]([C@H](O)CCN)NC(=O)[C@H]([C@H](O)[C@@H](O)c2ccc(O)cc2)NC(=O)[C@@H]2C[C@@H](O)CN2C(=O)[C@H]([C@@H](C)O)NC1=O [CAS, caspofungin]
2. OC(Cn1cncn1)(Cn1cncn1)c1ccc(F)cc1F [FLU, fluconazole]

1: 1 µg/mL; 2: > 64 µg/mL

====

- Test system: Candida albicans
- assay_remarks: Broth microdilution of invasive fungal isolates (CLSI M27-A3/M38-A2)
- Type: cell-based
- test_settings: 251 isolates
Starred links: 1 amine or outer side, 2 acyl side, 3 side chain; linkers in the order of their positions; H or OH if unused. Positions of bridges follow the written chain, without caps; N, C: chain ends. Non-standard residues stand in square brackets, D forms with d. Residues, ends and D or L forms follow the SMILES beside them. *: point of attachment. Orn(4R-OH,5R-OCH2CH2NMe3+) = C[N+](C)(C)CCO[C@@H](N[*:3])[C@H](O)C[C@H](N[*:1])C(=O)[*:2]; hTyr(3S-OH,4S-OH,3'-OSO3H) = N[C@H](C(=O)O)[C@H](O)[C@@H](O)c1ccc(O)c(OS(=O)(=O)O)c1; pTerphenylCO(4''-OnC5H11) = CCCCCOc1ccc(-c2ccc(-c3ccc(C(=O)*)cc3)cc2)cc1; Orn(4R-OH,5R-OH) = O=C([C@H](C[C@@H](O)[C@@H](O)N[*:3])N[*:1])[*:2]; hTyr(3S-OH,4S-OH) = N[C@H](C(=O)O)[C@H](O)[C@@H](O)c1ccc(O)cc1; Pro(3S-OH,4S-Me) = C[C@H]1CN[C@H](C(=O)O)[C@H]1O; X1 = CCCCCOc1ccc(-c2cc(-c3ccc(C(=O)*)cc3)no2)cc1; Gln(3R-OH) = NC(=O)C[C@@H](O)[C@H](N)C(=O)O; Hyp = O=C(O)[C@@H]1C[C@@H](O)CN1
I'd appreciate it if you could supply Number of isolates inhibited at MIC ≤0.008 μg/mL values for the items below.
Give bare numbers.

- compound: "CCCCCOc1ccc(-c2cc(-c3ccc(C(=O)N[C@H]4C[C@@H](O)[C@@H](O)NC(=O)[C@@H]5[C@@H](O)[C@@H](C)CN5C(=O)[C@H]([C@H](O)CC(N)=O)NC(=O)[C@H]([C@H](O)[C@@H](O)c5ccc(O)c(OS(=O)(=O)O)c5)NC(=O)[C@@H]5C[C@@H](O)CN5C(=O)[C@H]([C@@H](C)O)NC4=O)cc3)no2)cc1 [MCF, micafungin] (X1-[Orn(4R-OH,5R-OH)]T[Hyp][hTyr(3S-OH,4S-OH,3'-OSO3H)][Gln(3R-OH)][Pro(3S-OH,4S-Me)]; lactam 1-C)"
  target_desc: "Candida albicans"
  readout_value: 17
- compound: "CCCCCOc1ccc(-c2ccc(-c3ccc(C(=O)N[C@H]4C[C@@H](O)[C@@H](O)NC(=O)[C@@H]5[C@@H](O)[C@@H](C)CN5C(=O)[C@H]([C@@H](C)O)NC(=O)[C@H]([C@H](O)[C@@H](O)c5ccc(O)cc5)NC(=O)[C@@H]5C[C@@H](O)CN5C(=O)[C@H]([C@@H](C)O)NC4=O)cc3)cc2)cc1 [ANID, anidulafungin] ({pTerphenylCO(4''-OnC5H11)}-[Orn(4R-OH,5R-OH)]T[Hyp][hTyr(3S-OH,4S-OH)]T[Pro(3S-OH,4S-Me)]; lactam 1-C)"
  target_desc: "Candida albicans"
  readout_value: 69

Lab note: next compound to report on.
Quick one: Number of isolates inhibited at MIC ≤0.008 μg/mL for CCCCCOc1ccc(-c2ccc(-c3ccc(C(=O)N[C@H]4C[C@@H](O)[C@@H](OCC[N+](C)(C)C)NC(=O)[C@@H]5[C@@H](O)[C@@H](C)CN5C(=O)[C@H]([C@@H](C)O)NC(=O)[C@H]([C@H](O)[C@@H](O)c5ccc(O)cc5)NC(=O)[C@@H]5C[C@@H](O)CN5C(=O)[C@H]([C@@H](C)O)NC4=O)cc3)cc2)cc1 [Compound 1] ({pTerphenylCO(4''-OnC5H11)}-[Orn(4R-OH,5R-OCH2CH2NMe3+)]T[Hyp][hTyr(3S-OH,4S-OH)]T[Pro(3S-OH,4S-Me)]; lactam 1-C) ?
17

# credit: patent US20180256673A1
